pIC50: −log10 of the molar value.
Form: system (Androgen receptor (Homo sapiens, UniProt P10275)), quantity (pIC50), values below.

MOLECULE	SYSTEM TESTED	pIC50
CNC(=O)c1ccc([C@]2(O)CCN(c3ccc(C#N)c(Cl)c3)[C@H]2C)nc1	Androgen receptor (Homo sapiens, UniProt P10275)	7.17
C[C@@H]1N(c2ccc(C#N)c(Cl)c2)CC[C@@]1(O)c1ccc(N2CCCC2=O)nc1	Androgen receptor (Homo sapiens, UniProt P10275)	7.89
C[C@@H]1N(c2ccc(C#N)c(Cl)c2)CC[C@@]1(O)c1ccc(C(N)=O)cc1	Androgen receptor (Homo sapiens, UniProt P10275)	7.57
N#Cc1ccc(N2CCC(O)(c3ccccc3)C2)cc1Cl (racemic)	Androgen receptor (Homo sapiens, UniProt P10275)	6.43
N#Cc1ccc(N2CCC(O)C2)cc1Cl (stereo not given)	Androgen receptor (Homo sapiens, UniProt P10275)	6.92
